# TEST_SYSTEM: T1, Clostridium difficile toxin A, soluble full-length (TechLab) (Clostridium difficile, UniProt P16154 1-2710)
# T1 construct: also called tcdA
# METHOD: SPR Biacore T200, 37C, mAb capture

BINDER	kon, M⁻¹ s⁻¹
H1H3350P (antibody, V domains shown) VH: QVQLVESGGGLVKPGGSLTLSCVASGFTFTDYYISWIRQAPGKGLEWISYIGTGGAAKYYADSVKGRFTVSRDNAKNSLYLLMNNLRAEDTAVYYCARDLGIFDLWGQGTLVTVSS VL: EIVMTQSPATLSVSPGERATLSCRASQSVSSSLAWYHQKPGQAPRLLIHGVSTRATGIPARFSGTGSGTEFTLTISSLQSEDFAVYYCQQYHNWPPYTFGQGTKLEIKR	402000
H1H3324P (antibody, V domains shown) VH: EVQLVESGGGLVQPGGSLRLSCAASGFTFSSYDMHWVRQVIGKGLEWVSAIGTVGDTYYAGSVKGRFTISRENAKNSLYLQMNSLRAGDTAVYYCARDRGGANIYSFYYGMDVWGQGTTVTVSS VL: DIQMTQSPSSLSVSVGDRVTITCRASQDISNYLAWYQQKPGKVPKLLIYAASTLQSGVPSRFSGSGSGTDFTLTISSLQPEDVATYFCQKYNSAPFTFGPGTKVDIKR	251000
H1H3117N (antibody, V domains shown) VH: EVQLLESGGGLAQPGGSLRLSCAASGFNFGTHDMSWVRQAPGKGLEWVSGLTSTGGSASSADSVKGRFTISRDNSKNILYLQMNSLRAEDTAVYYCAKTFNWNSYFDYWGQGTLVTVSS VL: EIVLTQSPGTLSLSPGERATLSCRASQSISTYYLAWYQQKPDQPPRLLIYGTSSRATGIPDRFSGSGSGTDFTLTISRLDPEDFAVYYCQQYGNSLYTFGQGTKLEIK	438000
